Tested on: RXRa DBDmut IVT, anti-RXR (DBD mutation: RXRa K156A/R161A, NR concentration 90 nM)
Experiment: PBM binding z-score (relative to random genomic background probes); higher = stronger binding; sequences stand for … in GC…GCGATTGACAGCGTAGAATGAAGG
Given measured PBM binding z-score, output TRUE if it is greater than or equal to 0.4 and FALSE if not.

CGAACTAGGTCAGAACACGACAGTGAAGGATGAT : TRUE
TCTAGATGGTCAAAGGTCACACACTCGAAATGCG : TRUE
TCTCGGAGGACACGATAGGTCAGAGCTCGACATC : TRUE
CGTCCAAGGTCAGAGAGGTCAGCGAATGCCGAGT : TRUE
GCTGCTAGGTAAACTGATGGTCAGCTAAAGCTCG : FALSE
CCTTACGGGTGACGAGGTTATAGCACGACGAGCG : FALSE
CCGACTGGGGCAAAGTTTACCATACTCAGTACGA : TRUE
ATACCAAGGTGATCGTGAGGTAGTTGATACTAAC : FALSE
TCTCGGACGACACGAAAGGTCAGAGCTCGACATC : TRUE
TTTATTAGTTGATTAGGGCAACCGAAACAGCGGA : TRUE

Test whether the sequence `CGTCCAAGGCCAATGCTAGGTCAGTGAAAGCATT` records PBM binding z-score of 0.4 or higher.
TRUE

Test whether the sequence `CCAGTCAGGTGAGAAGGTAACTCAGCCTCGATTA` records PBM binding z-score of 0.4 or higher.
FALSE

Test whether the sequence `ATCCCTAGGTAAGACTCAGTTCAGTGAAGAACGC` records PBM binding z-score of 0.4 or higher.
TRUE

Test whether the sequence `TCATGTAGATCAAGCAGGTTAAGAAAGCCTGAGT` records PBM binding z-score of 0.4 or higher.
TRUE

Test whether the sequence `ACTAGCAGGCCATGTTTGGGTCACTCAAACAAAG` records PBM binding z-score of 0.4 or higher.
FALSE

Test whether the sequence `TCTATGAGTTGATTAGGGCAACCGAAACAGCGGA` records PBM binding z-score of 0.4 or higher.
TRUE

Test whether the sequence `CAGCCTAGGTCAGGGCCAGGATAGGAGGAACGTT` records PBM binding z-score of 0.4 or higher.
FALSE

Test whether the sequence `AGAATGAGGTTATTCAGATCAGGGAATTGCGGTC` records PBM binding z-score of 0.4 or higher.
TRUE

Test whether the sequence `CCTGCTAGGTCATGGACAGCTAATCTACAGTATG` records PBM binding z-score of 0.4 or higher.
TRUE
